- test: Log BB screen: brain compound level and log BB in mice
- Assay type: in vivo
- measurement-context: iv, 10 mg/ml, mouse, single i.v. injection, brain, read-out: Brain concentration 1 h after application
reported-endpoint: concentration at 1 h (ng/g)

1. O=C1NC(=O)N(c2ccc3[nH]cnc3c2)C1c1ccc(Cl)c(C(F)(F)F)c1 (stereo not shown) | 38.2
2. Cc1ccc(O)c(C2C(=O)NC(=O)N2c2ccc3[nH]cnc3c2)c1 (stereo not shown) | 17.1
3. CCCOc1ccc(C2C(=O)NC(=O)N2c2ccc3[nH]cnc3c2)cc1 (racemic) | 126

a: O=C1NC(=O)N(c2ccc3[nH]cnc3c2)C1c1ccccc1Cl (stereo not shown)
b: O=C1NC(=O)C2(Cc3ccccc3C2)N1c1ccc2[nH]cnc2c1
Ask: Consider a and b . Which of these has its concentration at 1 h at a higher number? Identify your pick by its label.
Reply: a
(a: 20.2 ng/g, b: 11.7 ng/g)

1: O=C1NC(=O)N(c2ccc3[nH]cnc3c2)C1c1ccc2nsnc2c1 (stereo not shown)
2: O=C1NC(=O)N(c2ccc3[nH]cnc3c2)C1c1ccc(Cl)cc1 (stereo not shown)
Ask: # return whichever of 1 and 2 has the smaller concentration at 1 h Identify your pick by its label.
Reply: 2
(2: 31.4 ng/g, 1: 118 ng/g)
